assay: Restrictive medium S. cerevisiae growth inhibition, OD615, pilot screen of yeast lifespan reduction project, restrictive growth control (AID 706); conditions: OD615, 48 h, at 10 µM, hits give high values;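 also: modified DeaD lifespan yeast strain shifted to restrictive glucose medium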
The source made the active and inactive calls.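 The calls were made as follows: active = growth inhibition above a set limit, 3 SD over mean compound inhibition, in both replicates (cut at about 43% in these data); inconclusive = above the limit in only one replicate; inactive = at or below the limit in both replicates.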

| MOLECULE | growth inhibition |
| --- | --- |
| CC(C)c1ccc(NC(=O)c2cnn(-c3ccccc3)c2NC(=O)c2ccco2)cc1 | 0.43% (inactive) |
| CC(=O)C1=C(C)N=c2s/c(=C/c3ccc4c(c3)OCO4)c(=O)n2C1c1ccc(N(C)C)cc1 (configuration not stated) | -9.9% (inactive) |
| COc1ccc(NC(=O)N(CCC(C)C)C(C)c2ccccn2)c(OC)c1 (configuration not stated) | 7.73% (inactive) |
| Cc1ccc(F)cc1NC(=O)c1c(-c2ccccc2)noc1C | -26.1% (inactive) |
| Cc1noc(C(=O)NCc2ccco2)c1Cl | -34.1% (inactive) |
| CC1CCc2nn(CC(=O)NCc3ccco3)cc2C1 (configuration not stated) | 2.02% (inactive) |
| CCOc1ccc(NC(=O)N2CCC(n3c(=O)[nH]c4ccccc43)CC2)cc1 | -22% (inactive) |
| COc1cc2c(cc1OC)CN(C(=O)C(C)(C)C)CC2 | -7.4% (inactive) |
| Cc1nc2c3ccccc3n(CC(=O)c3ccc(F)cc3)c(=O)n2n1 | -4.75% (inactive) |
| CCOc1ccc(N(CC(=O)Nc2nccs2)S(=O)(=O)c2c(C)noc2C)cc1 | 5.32% (inactive) |
| O=C(CCN1CCN(c2ccccc2)CC1)Nc1ccc2c(c1)OCO2 | 0.05% (inactive) |
| Cc1cccc(CC(=O)Nc2cc(=O)n(C)c(=O)n2C)c1 | -4.44% (inactive) |
| Cc1cc(CN2C(=O)c3ccccc3C2=O)cc(N2CCOCC2)c1 | -10.3% (inactive) |
| CC(=O)N1CCN(c2ccc(NCc3ccc(C)s3)cc2)CC1 | 8.29% (inactive) |
| CCOc1ccc(C2c3c(oc4ccccc4c3=O)C(=O)N2c2ccc(C)cn2)cc1OC (configuration not stated) | 2.13% (inactive) |
| O=C(Cn1cnc2c(cnn2-c2ccccc2)c1=O)c1ccc(Cl)cc1 | -12.3% (inactive) |
| Cc1cccc(OCC(=O)Nc2ccc3c(c2)OCO3)c1C | -2.99% (inactive) |
| C=CCn1cnc2scc(-c3ccccc3)c2c1=O | 10.9% (inactive) |
| CCOC(=O)c1cccc(NC(=O)Cn2cc3c(n2)CCC(C)C3)c1 (configuration not stated) | 17.6% (inactive) |
| N#Cc1cccc(NC(=O)CC2CCCCC2)c1 | 11.6% (inactive) |
| Cc1noc(C(=O)Nc2c(C)nn(Cc3ccccc3)c2C)c1Cl | 7.98% (inactive) |
| Cn1c(NC(=O)c2ccccc2Br)cc(=O)n(C)c1=O | -19.3% (inactive) |
| COc1ccc(CCNC(=O)COC(=O)c2cnc(C)cn2)cc1OC | -14.6% (inactive) |
| CCCN1C(=O)c2cc(C(=O)NCCc3cccc(C)c3)ccc2C1O (configuration not stated) | 1.97% (inactive) |
| Cc1ccccc1-c1nc(CS(=O)CC(=O)NCc2ccccc2)c(C)o1 (configuration not stated) | 7.02% (inactive) |
| Cc1cccc(NC(=O)C2CCCN(S(=O)(=O)c3cccc4cccnc34)C2)c1 (configuration not stated) | -9.72% (inactive) |
| O=C(O)C1(P(=O)(c2ccccc2)c2ccccc2)CCC1 | -5.79% (inactive) |
| COc1ccccc1N(CC(=O)Nc1ccc2c(c1)OCO2)S(=O)(=O)c1ccccc1 | -18.2% (inactive) |
| O=C(CCNS(=O)(=O)c1cccc2nsnc12)NCCc1ccccc1 | -1.99% (inactive) |
| Cc1[nH]n(-c2ccccc2)c(=O)c1S(=O)(=O)c1ccccc1 | -3.15% (inactive) |
| CN(C)c1nc(N)nc(-c2ccco2)n1 | 14.2% (inactive) |
| COc1ccccc1CNS(=O)(=O)c1ccc2c(c1)oc(=O)n2C | -0.685% (inactive) |
| COc1ccccc1CNC(=O)CCn1c(=O)oc2ccccc21 | 6.41% (inactive) |
| CCOc1ccc(N2C(=O)c3ccccc3C2O)cc1 (configuration not stated) | 11.8% (inactive) |
| O=C1OC(Nc2nc3ccccc3s2)c2ccccc21 (configuration not stated) | 6.6% (inactive) |
| CCc1cc2c(NCC3CCCO3)ncnc2s1 (configuration not stated) | 9.07% (inactive) |
| Cc1nc2sc(C(c3cccs3)N3CCN(C(=O)c4ccco4)CC3)c(O)n2n1 (configuration not stated) | -6.47% (inactive) |
| CCN1CCN(Cc2ccc(NC(=O)CC3Oc4ccc(C)cc4NC3=O)cc2)CC1 (configuration not stated) | 1.68% (inactive) |
| CCOC(=O)C(C)Sc1nnc(Cn2c(=O)sc3ccccc32)n1-c1ccccc1 (configuration not stated) | -4.57% (inactive) |
| O=C(CN1CCOc2ccccc21)N1CCCC1 | -8.8% (inactive) |
| COc1ccccc1NC(=O)NCCN1C(=O)C2C3C=CC(C3)C2C1=O (configuration not stated) | -7.88% (inactive) |
| CCCC(=O)NCCCCNC(=O)CCC | 2.44% (inactive) |
| CCCc1nc(SCC(=O)Nc2cc(C)on2)c2c(=O)n(C)c(=O)n(C)c2n1 | 4.73% (inactive) |
| O=c1oc(-c2cccnc2)nc2ccccc12 | -3.38% (inactive) |
| COC(=O)c1ccccc1NC(=O)CSc1nccn1C | 2.94% (inactive) |
| CC(CC1C(C#N)=C(N)OC2=C1C(=O)CCC2)c1ccccc1 (configuration not stated) | -13.3% (inactive) |
| COc1ccc(C(c2sc3nc(C)nn3c2O)N2CCC(O)CC2)cc1OC (configuration not stated) | 0.32% (inactive) |

###

experiment: RAM signaling pathway blockade in yeast – S. cerevisiae, Pdr1DBD-CYC8 efflux-inhibited sensitized strain, primary screen (AID 1298);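 also: 0% = DMSO untreated cells without growth and 100% = 10 µM 1-NA-PP1 full growth; higher means more yeast growth rescued from 5-FOA killing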; settings: S. cerevisiae cbk1-as DSE1-URA3 strain, 5-FOA growth OD615, 2 d; at 50 µM; hits give high values
Category scheme (RAM network inhibition): low value: < 3%; medium value: ≥ 3% and < 5%; high value: ≥ 5%

| COMPOUND | LABEL_CLASS |
| --- | --- |
| O=C1CC(c2ccccc2)C(C(=O)Nc2ccccc2F)N1 (stereo not drawn) | medium value |
| CCc1ccc(C2CC(c3ccccc3Cl)Nc3nc(N)nn32)cc1 (stereo not drawn) | high value |
| CCOC(=O)N1CCC(N2CC34C=CC(O3)C(C(=O)Nc3ccc(OCC)cc3)C4C2=O)CC1 (stereo not drawn) | medium value |
| COc1cccc(-c2nnc(SCC(=O)N3CC(C)CC(C)C3)o2)c1 (stereo not drawn) | low value |
| CC1(C)Cc2ccccc2-c2nc(NCCO)n(-c3ccccc3)c(=O)c21 | medium value |
| CNC(=O)c1nnc(Cc2ccc(F)cc2)o1 | low value |
| O=C(Cn1cnc2c(cnn2-c2ccc(Cl)cc2)c1=O)NC1CCCCC1 | low value |
| CCN1CCN(C(C(=O)NC2CCCC2)c2ccc(Cl)cc2)CC1 (stereo not drawn) | medium value |
| Cc1cc(C)cc(-n2cc3c(=O)n(C)c(=O)n(C)c3c2)c1 | low value |
| CCCCCCSc1nc2c(c(=O)[nH]c(=O)n2C)n1C | low value |
| O=C(NCCCN1CCC(Cc2ccccc2)CC1)C1CC(=O)N(C2CCCC2)C1 (stereo not drawn) | low value |
| C=CCSC1=N/C(=C\c2ccsc2)C(=O)S1 | low value |
| CC(=O)c1coc2ccc(OCCN3CCCCC3)cc12 | low value |
| CCOc1ccc(OCC)c(NC(=O)C2CCCN2S(=O)(=O)c2cccc3cccnc23)c1 (stereo not drawn) | high value |
| COCc1cc(C)nc(SCC(=O)Nc2cccc3cccnc23)c1C#N | high value |
| CCn1c2ccccc2c2nnc(SCN3C(=O)c4ccccc4C3=O)nc21 | high value |
| Cc1cc(NC(=O)CSc2c(C)[nH]c3ccccc23)no1 | medium value |
| CC(=O)N1CCc2cc(C(=O)CN3CCC(C)CC3)ccc21 | high value |
| O=C1CCc2cc(S(=O)(=O)NC(Cc3ccccc3)C(=O)NC3CCCC3)ccc2N1 (stereo not drawn) | low value |
| CCS(=O)(=O)N1CCN(c2cccc(C)c2C)CC1 | medium value |

###

assay: Restrictive medium S. cerevisiae growth inhibition, OD615, pilot screen of yeast lifespan reduction project, restrictive growth control (AID 706); conditions: OD615, 48 h, at 10 µM, hits give high values;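 also: modified DeaD lifespan yeast strain shifted to restrictive glucose medium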

| MOLECULE | U | growth inhibition |
| --- | --- | --- |
| Cc1ccc(NC(=O)C2C3C=CC4(CN(Cc5cccnc5)C(=O)C24)O3)cc1 (stereo unspecified) | % | -7.85 |
| N#Cc1nc(-c2ccccc2F)oc1NCc1ccccc1 | % | 11.3 |
| CCOC(=O)c1cnc2c(C)cccc2c1NCc1ccco1 | % | -9.38 |
| Cc1ccccc1-n1c(SC/C(O)=C(\C#N)c2nc3ccccc3[nH]2)nnc1-c1ccncc1 | % | 19.1 |
| O=C(C1CCC(CNc2c(N3CCOCC3)c(=O)c2=O)CC1)N1CCN(c2ccccc2)CC1 (stereo unspecified) | % | -8.31 |
| COc1ccc(C2C/C(=N\O)C(C)(C)O2)cc1 (stereo unspecified) | % | -4.77 |
